All figures here come from PubChem BioAssay (NCI).

Parameter: growth. Scope: all listed entries.
system: SN12C renal; assay: NCI-60 one-dose screen, 48 h (100 = growth as untreated, 0 = no growth, -100 = all killed); details: 10 µM
The panel holds about 83,000 compounds, 20% with a hit somewhere; the sample as a whole holds those more often.
Readout label: growth (%)

1. BrC/C=C/C[P+](c1ccccc1)(c1ccccc1)c1ccccc1    64.4
2. CN1CCN(c2ccc3nc(-c4ccc5nc(-c6ccc(O)cc6)[nH]c5c4)[nH]c3c2)CC1    88.9
3. CCCCCCCCCCCCCCCCCN    96.8
4. CSc1ccc2c(c1)C(N1CCN(C)CC1)Cc1ccccc1S2 (centres undefined)    35.6
5. Cc1cnc(/C=N\NC(N)=S)c2cccc(N)c12    -12.9
6. COc1cc(C(C)(C)C)cc(OC)c1C(O)(c1c(OC)cc(C(C)(C)C)cc1OC)c1c(OC)cc(C(C)(C)C)cc1OC    -80.2
7. S=c1[nH]nc(Cc2ccccc2)c(=S)[nH]1    113
8. CN(C)CCC(=O)c1c[nH]c2ccccc12    104
9. Nc1ccc2cc(Br)c3ccccc3c2c1    63.8

* * *

tested on: NCI/ADR-RES ovarian; experiment: NCI-60 one-dose screen, 48 h (100 = growth as untreated, 0 = no growth, -100 = all killed); settings: 10 µM
Compounds without any hit were thinned out: in the full panel of roughly 83,000, 20% have a hit. Starred links: 1 amine or outer side, 2 acyl side, 3 side chain; linkers in the order of their positions; H or OH if unused. Positions of bridges follow the written chain, without caps; N, C: chain ends. Non-standard residues stand in square brackets, D forms with d. Residues, ends and D or L forms follow the SMILES beside them. Chains are numbered I, II in the order given. Actinocin(9to1) = Cc1c2oc3c(C)ccc(C(=O)[*:1])c3nc-2c(C(=O)[*:2])c(N)c1=O; aThr = C[C@H](O)[C@H](N)C(=O)O; NMeV = CN[C@H](C(=O)O)C(C)C; Sar = CNCC(=O)O
Parameter: growth. Scope: all listed entries.
Readout label: growth (%)

1) CCCCCCCCCCCCCCCCCN    115
2) Cc1c2oc3c(C)ccc(C(=O)N[C@@H]4C(=O)N[C@H](C(C)C)C(=O)N5CCC[C@H]5C(=O)N(C)CC(=O)N(C)[C@@H](C(C)C)C(=O)O[C@H]4C)c3nc-2c(C(=O)N[C@@H]2C(=O)N[C@H](C(C)C)C(=O)N3CCC[C@H]3C(=O)N(C)CC(=O)N(C)[C@@H](C(C)C)C(=O)O[C@H]2C)c(N)c1=O (I: [aThr][dV]P[Sar][NMeV] / II: [aThr][dV]P[Sar][NMeV]; ester I:1-I:C, II:1-II:C; linker I:N-II:N via Actinocin(9to1))    -39.5
3) CN(C)CCC(=O)c1c[nH]c2ccccc12    110
4) BrC/C=C/C[P+](c1ccccc1)(c1ccccc1)c1ccccc1    96.7
5) CN1CCN(c2ccc3nc(-c4ccc5nc(-c6ccc(O)cc6)[nH]c5c4)[nH]c3c2)CC1    130
6) S=c1[nH]nc(Cc2ccccc2)c(=S)[nH]1    100
7) Cc1cc(NCCCN(C)C)c2ccc3c(ccc4c(NCCCN(C)C)cc(C)nc43)c2n1    -10.4
8) CSc1ccc2c(c1)C(N1CCN(C)CC1)Cc1ccccc1S2 (stereo not drawn)    49.2
